ASSAYED_TARGET: T1, TCE-32 (anti-CD3 scFv V239A; anti-TROP2 wt)
T1 construct: scFv on the Fab heavy chain
TEST_PROTOCOL: competition ELISA, TCE on captured CD3
Where no end group is shown, it is not given here.
ATTRIBUTE_MEASURED: pIC50
Remember, pIC50 is on a log scale: it is -log10 of the molar concentration.

# query: pIC50 of entry VYCGPEFDESVGCA (cysteine pairing not given here; also: biotinylated, site not given here, mask peptide for the CD3 scFv) [Peptide-73]
7.22
